system: SK-MEL-2; test: NCI tumour cell line growth inhibition, 48 h
Active and inactive are the calls of the source. Cut-off read from the data, not from the text of the source: active = GI50 up to about 1.1 µM and inactive = higher.
In this exercise, the only acceptable responses are T for active, F for inactive

# compound, experimentalTarget, className
rows = [
    ("Cc1c2ccccc2c(C)n2c1nc1cc(Cl)c(Cl)cc12", "SK-MEL-2", "F"),
    ("Nc1nc(Sc2ccc([N+](=O)[O-])c3nonc23)c2nc[nH]c2n1", "SK-MEL-2", "T"),
    ("O=[N+]([O-])c1ccc(Cl)cc1/C=N/C12CC3CC(CC(C3)C1)C2", "SK-MEL-2", "F"),
    ("CN1CCN(CCCBr)CC1", "SK-MEL-2", "F"),
    ("CCCCCCN1C(=O)CC(=O)N(CCCCCC)S1(=O)=O", "SK-MEL-2", "F"),
]

query: # outcome recorded in this test, key = COC1CC(N)(c2ccccc2)C(O)C(C)O1 (stereo unspecified)
result: F

query: # outcome recorded in this test, key = CO[C@H]1[C@@H](O)[C@@H](C)O[C@@H](O[C@H]2CC[C@@]3(C)[C@H](CC[C@@H]4[C@@H]3CC[C@]3(C)[C@@H](C5=CC(=O)OC5)[C@@H](OC(C)=O)C[C@]43O)C2)[C@@H]1O [NERITALOSIDE]
result: T

query: # outcome recorded in this test, key = N#Cc1c(Cl)c2cc([N+](=O)[O-])ccc2n2c1nc1ccccc12
result: F

query: # outcome recorded in this test, key = Cc1nnc(N)nc1/C=C\c1cccs1
result: F

query: # outcome recorded in this test, key = CCC1=C(C=O)c2cc3[nH]c(cc4nc(c5c6[nH]c(cc1n2)c(C)c6C(=O)C5C(=O)OC)C(CCC(=O)OC)C4C)c(C)c3CC (stereo unspecified)
result: F

query: # outcome recorded in this test, key = CN1CCCN(C)C1c1cc([N+](=O)[O-])ccc1O
result: F

query: # outcome recorded in this test, key = CCOC(=O)C(O)(NC(=O)c1ccc(F)cc1)C(F)(F)F (stereo unspecified)
result: F

query: # outcome recorded in this test, key = CN1c2ccccc2S(=O)(=O)n2c(COc3ccc(Cl)cc3)nnc21
result: F

query: # outcome recorded in this test, key = C[N+]1=c2c3cccc4cccc(c(=O)n2CC1)c43
result: F

query: # outcome recorded in this test, key = O=c1[nH]nc(-c2ccccc2)n1/N=C/c1cccc([N+](=O)[O-])c1
result: F

query: # outcome recorded in this test, key = CCOc1ccc(/N=N/c2c(-c3ccccc3)nn(C(=O)CC(=O)Nc3cccc(C)c3)c2-c2ccccc2)cc1
result: F

query: # outcome recorded in this test, key = COC(=O)C1Cc2cc3c(cc2C1=O)CCCC3 (stereo unspecified)
result: F

query: # outcome recorded in this test, key = NC(=O)NC(=O)C1CCC(=O)N1S(=O)(=O)c1ccc(Cl)cc1 (stereo unspecified)
result: F

query: # outcome recorded in this test, key = Nc1nnc2nc(CC(=O)/C=C/c3ccccc3)c(=O)[nH]n12
result: F

query: # outcome recorded in this test, key = O=C(O)c1nn(-c2ccccc2-c2nnc(O)nc2O)c(=O)[nH]c1=O
result: F

query: # outcome recorded in this test, key = COP1(=S)OCC2CCC[C@@H]2O1 (stereo partly specified)
result: F
